species: Bos taurus; experiment: Inhibition of calf DNA polymerase alpha using poly(dA)/oligo(dT)18 (A/T = 2/1) and dTTP as the DNA template-primer and nucleotide substrate at 10 uM after 60 mins
The source made the active and inactive calls. The rule behind the calls is not given here.
reportedEndpoint: inhibition

>>> experimentalvalue("CC/C=C\\C/C=C\\C/C=C\\C/C=C\\C/C=C\\C/C=C\\CCC(=O)O")
"inactive"
>>> experimentalvalue("CCCCCCCC/C=C\\CCCCCCCC(=O)Oc1cccc2c1C(=O)C=CC2=O")
"Active"
>>> experimentalvalue("CCCCC/C=C\\C/C=C\\CCCCCCCC(=O)O")
"inactive"
>>> experimentalvalue("CCCCCCCCCCCC(=O)Oc1cccc2c1C(=O)C=CC2=O")
"Active"
>>> experimentalvalue("CCCCCCCCCCCC(=O)O [DODECANOATE]")
"inactive"
>>> experimentalvalue("CC/C=C\\C/C=C\\C/C=C\\CCCCCCCC(=O)O")
"inactive"
>>> experimentalvalue("CCCCCCCC/C=C\\CCCCCCCC(=O)O")
"inactive"
>>> experimentalvalue("CC/C=C\\C/C=C\\C/C=C\\CCCCCCCC(=O)Oc1cccc2c1C(=O)C=CC2=O")
"Active"
>>> experimentalvalue("CCCCCC(=O)Oc1cccc2c1C(=O)C=CC2=O")
"Active"
>>> experimentalvalue("CCCCC/C=C\\C/C=C\\CCCCCCCC(=O)Oc1cccc2c1C(=O)C=CC2=O")
"Active"
>>> experimentalvalue("CCC(=O)O")
"inactive"
>>> experimentalvalue("CCCCCCCCCCCCCCCCCC(=O)O")
"inactive"
>>> experimentalvalue("CCCCCCCCCCCCCCCCCC(=O)Oc1cccc2c1C(=O)C=CC2=O")
"Active"
>>> experimentalvalue("CC/C=C\\C/C=C\\C/C=C\\C/C=C\\C/C=C\\C/C=C\\CCC(=O)Oc1cccc2c1C(=O)C=CC2=O")
"Active"
>>> experimentalvalue("CC/C=C\\C/C=C\\C/C=C\\C/C=C\\C/C=C\\CCCC(=O)O")
"inactive"
>>> experimentalvalue("CC(=O)O")
"inactive"
>>> experimentalvalue("O=C1C=CC(=O)c2c(O)cccc21")
"Active"
>>> experimentalvalue("CC/C=C\\C/C=C\\C/C=C\\C/C=C\\C/C=C\\CCCC(=O)Oc1cccc2c1C(=O)C=CC2=O")
"Active"
>>> experimentalvalue("CC(=O)Oc1cccc2c1C(=O)C=CC2=O")
"Active"
>>> experimentalvalue("CCCCCC(=O)O [HEXANOATE]")
"inactive"
>>> experimentalvalue("CCC(=O)Oc1cccc2c1C(=O)C=CC2=O")
"Active"

###

molecular target: UniProt Q9Y253
Sequence (Q9Y253 whole entry): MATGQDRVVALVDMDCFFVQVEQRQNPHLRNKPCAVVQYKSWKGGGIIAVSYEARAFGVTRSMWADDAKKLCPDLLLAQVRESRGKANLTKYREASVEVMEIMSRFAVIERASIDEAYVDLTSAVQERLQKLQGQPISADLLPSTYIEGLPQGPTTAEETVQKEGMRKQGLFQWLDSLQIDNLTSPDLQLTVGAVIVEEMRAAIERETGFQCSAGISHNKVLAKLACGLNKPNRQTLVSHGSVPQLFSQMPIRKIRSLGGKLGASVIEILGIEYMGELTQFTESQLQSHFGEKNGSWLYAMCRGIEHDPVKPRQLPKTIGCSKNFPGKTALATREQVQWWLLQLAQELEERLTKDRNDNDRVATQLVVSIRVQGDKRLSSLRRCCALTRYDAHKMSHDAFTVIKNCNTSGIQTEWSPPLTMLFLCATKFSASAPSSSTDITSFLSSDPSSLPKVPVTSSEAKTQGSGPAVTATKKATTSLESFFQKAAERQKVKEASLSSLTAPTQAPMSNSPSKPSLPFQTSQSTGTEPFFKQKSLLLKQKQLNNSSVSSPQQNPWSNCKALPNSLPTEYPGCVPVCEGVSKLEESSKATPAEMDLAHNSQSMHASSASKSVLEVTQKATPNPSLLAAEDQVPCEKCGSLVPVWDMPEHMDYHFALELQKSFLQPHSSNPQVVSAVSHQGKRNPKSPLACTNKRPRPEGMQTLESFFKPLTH
reportedEndpoint: IC50 (µM)

>>> experimentalvalue("CCCCCCCCCCCC(=O)Oc1cccc2c1C(=O)C=CC2=O")
6.9
>>> experimentalvalue("CCCCCCCC/C=C\\CCCCCCCC(=O)Oc1cccc2c1C(=O)C=CC2=O")
8.4

###

Target: DNA polymerase lambda (Homo sapiens) (UniProt Q9UGP5)
Sequence (whole entry): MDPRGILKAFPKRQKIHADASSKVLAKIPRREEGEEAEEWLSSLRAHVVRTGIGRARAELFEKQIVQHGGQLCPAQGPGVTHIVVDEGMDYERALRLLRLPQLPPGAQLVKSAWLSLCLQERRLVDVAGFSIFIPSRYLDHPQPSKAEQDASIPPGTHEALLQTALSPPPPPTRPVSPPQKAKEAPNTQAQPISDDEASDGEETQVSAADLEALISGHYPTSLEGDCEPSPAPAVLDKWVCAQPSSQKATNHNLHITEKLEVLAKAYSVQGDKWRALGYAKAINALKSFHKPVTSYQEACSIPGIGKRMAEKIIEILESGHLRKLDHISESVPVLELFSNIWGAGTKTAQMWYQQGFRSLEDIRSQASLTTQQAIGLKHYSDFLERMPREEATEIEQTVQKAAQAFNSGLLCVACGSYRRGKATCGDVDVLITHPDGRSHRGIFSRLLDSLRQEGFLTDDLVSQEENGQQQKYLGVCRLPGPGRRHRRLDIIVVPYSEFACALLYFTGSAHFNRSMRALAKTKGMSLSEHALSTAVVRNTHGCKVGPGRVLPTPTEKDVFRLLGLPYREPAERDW
Test: Inhibition of recombinant His-tagged human DNA polymerase lambda using bovine deoxyribonuclease 1-treated DNA and dNTP as the DNA template-primer and nucleotide substrate at 10 uM after 60 mins
Active and inactive are the calls of the source. The calls are words filed in the database; no cut-off is given here.
Outcome codes: active, inactive

>>> classname("CCCCCCCCCCCCCCCCCC(=O)O")
"inactive"
>>> classname("CCC(=O)Oc1cccc2c1C(=O)C=CC2=O")
"active"
>>> classname("CCCCCCCC/C=C\\CCCCCCCC(=O)Oc1cccc2c1C(=O)C=CC2=O")
"active"
>>> classname("CCCCCCCC/C=C\\CCCCCCCC(=O)O")
"inactive"
>>> classname("CCCCC/C=C\\C/C=C\\CCCCCCCC(=O)O")
"inactive"
>>> classname("CC/C=C\\C/C=C\\C/C=C\\CCCCCCCC(=O)Oc1cccc2c1C(=O)C=CC2=O")
"active"
>>> classname("CCCCCC(=O)Oc1cccc2c1C(=O)C=CC2=O")
"active"
>>> classname("CCC(=O)O")
"inactive"
>>> classname("CCCCCCCCCCCCCCCCCC(=O)Oc1cccc2c1C(=O)C=CC2=O")
"active"
>>> classname("O=C1C=CC(=O)c2c(O)cccc21")
"active"

###

species on record: Homo sapiens; assay: Inhibition of histidine-tagged human DNA polymerase gamma using bovine deoxyribonuclease 1-treated DNA and dNTP as the DNA template-primer and nucleotide substrate at 10 uM after 60 mins
Activity calls are given as the source filed them. The rule behind the calls is not given here.
Outcome codes: 1 (yes) = active, 0 (no) = inactive

>>> classname("CC/C=C\\C/C=C\\C/C=C\\CCCCCCCC(=O)Oc1cccc2c1C(=O)C=CC2=O")
"1 (yes)"
>>> classname("CC/C=C\\C/C=C\\C/C=C\\CCCCCCCC(=O)O [LINOLENIC ACID]")
"0 (no)"
>>> classname("CCCCCCCCCCCC(=O)Oc1cccc2c1C(=O)C=CC2=O")
"1 (yes)"
>>> classname("CCC(=O)O [PROPIONIC ACID]")
"0 (no)"
>>> classname("CC/C=C\\C/C=C\\C/C=C\\C/C=C\\C/C=C\\C/C=C\\CCC(=O)O [DOCONEXENT]")
"0 (no)"
>>> classname("CCCCC/C=C\\C/C=C\\CCCCCCCC(=O)O [LINOLEIC ACID]")
"0 (no)"
>>> classname("CCCCCCCC/C=C\\CCCCCCCC(=O)O [OLEIC ACID]")
"0 (no)"
>>> classname("CCCCCCCCCCCCCCCCCC(=O)Oc1cccc2c1C(=O)C=CC2=O")
"1 (yes)"
>>> classname("O=C1C=CC(=O)c2c(O)cccc21 [JUGLONE]")
"1 (yes)"
>>> classname("CC(=O)O [ACETIC ACID]")
"0 (no)"
>>> classname("CC/C=C\\C/C=C\\C/C=C\\C/C=C\\C/C=C\\C/C=C\\CCC(=O)Oc1cccc2c1C(=O)C=CC2=O")
"1 (yes)"
>>> classname("CC/C=C\\C/C=C\\C/C=C\\C/C=C\\C/C=C\\CCCC(=O)O [ICOSAPENT]")
"0 (no)"
>>> classname("CCCCC/C=C\\C/C=C\\CCCCCCCC(=O)Oc1cccc2c1C(=O)C=CC2=O")
"1 (yes)"
>>> classname("CC1=CC(=O)c2ccccc2C1=O")
"1 (yes)"
>>> classname("CCCCCCCC/C=C\\CCCCCCCC(=O)Oc1cccc2c1C(=O)C=CC2=O")
"1 (yes)"
>>> classname("CCC(=O)Oc1cccc2c1C(=O)C=CC2=O")
"1 (yes)"
>>> classname("CCCCCCCCCCCC(=O)O [DODECANOATE]")
"0 (no)"
>>> classname("CC/C=C\\C/C=C\\C/C=C\\C/C=C\\C/C=C\\CCCC(=O)Oc1cccc2c1C(=O)C=CC2=O")
"1 (yes)"
>>> classname("CC(=O)Oc1cccc2c1C(=O)C=CC2=O")
"1 (yes)"

###

Target: DNA polymerase kappa (Homo sapiens) (UniProt Q9UBT6)
Sequence (whole entry): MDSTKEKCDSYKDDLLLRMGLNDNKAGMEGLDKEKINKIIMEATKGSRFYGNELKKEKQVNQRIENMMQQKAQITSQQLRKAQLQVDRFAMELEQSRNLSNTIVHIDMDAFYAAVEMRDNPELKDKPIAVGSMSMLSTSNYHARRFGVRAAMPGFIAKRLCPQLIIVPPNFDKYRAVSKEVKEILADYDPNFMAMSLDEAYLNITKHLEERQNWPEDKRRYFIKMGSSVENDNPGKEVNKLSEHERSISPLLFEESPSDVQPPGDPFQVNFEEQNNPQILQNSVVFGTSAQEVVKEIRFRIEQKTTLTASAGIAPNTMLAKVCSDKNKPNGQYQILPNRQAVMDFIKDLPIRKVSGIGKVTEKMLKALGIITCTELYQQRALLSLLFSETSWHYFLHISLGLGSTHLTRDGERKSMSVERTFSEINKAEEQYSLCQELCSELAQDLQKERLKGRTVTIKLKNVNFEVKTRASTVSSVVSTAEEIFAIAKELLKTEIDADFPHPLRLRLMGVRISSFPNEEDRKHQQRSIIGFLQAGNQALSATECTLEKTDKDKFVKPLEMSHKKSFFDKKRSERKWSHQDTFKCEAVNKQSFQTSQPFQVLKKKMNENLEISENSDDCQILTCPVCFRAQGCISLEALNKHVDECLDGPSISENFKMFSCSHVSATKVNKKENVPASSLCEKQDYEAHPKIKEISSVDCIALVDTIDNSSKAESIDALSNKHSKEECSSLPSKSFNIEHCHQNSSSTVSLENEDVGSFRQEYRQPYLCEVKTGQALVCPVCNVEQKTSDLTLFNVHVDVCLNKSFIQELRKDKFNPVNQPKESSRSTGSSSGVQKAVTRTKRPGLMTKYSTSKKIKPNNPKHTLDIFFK
Test: Inhibition of C-terminal His6-tagged human DNA polymerase kappa (amino acids 1 to 560) using poly(dA)/oligo(dT)18 (A/T = 2/1) and dTTP as the DNA template-primer and nucleotide substrate at 10 uM after 60 mins
Calls of active or inactive are those of the source. No cut-off for these calls is given here.
Labels: y = active, n = inactive

>>> classname("CC/C=C\\C/C=C\\C/C=C\\CCCCCCCC(=O)Oc1cccc2c1C(=O)C=CC2=O")
"y"
>>> classname("CC(=O)Oc1cccc2c1C(=O)C=CC2=O")
"y"
>>> classname("CC/C=C\\C/C=C\\C/C=C\\C/C=C\\C/C=C\\CCCC(=O)Oc1cccc2c1C(=O)C=CC2=O")
"y"
>>> classname("CCCCCC(=O)Oc1cccc2c1C(=O)C=CC2=O")
"y"
>>> classname("CCC(=O)Oc1cccc2c1C(=O)C=CC2=O")
"y"
>>> classname("CCCCCCCC/C=C\\CCCCCCCC(=O)O [OLEIC ACID]")
"n"
>>> classname("CC(=O)O [ACETIC ACID]")
"n"
>>> classname("CCCCCCCCCCCCCCCCCC(=O)Oc1cccc2c1C(=O)C=CC2=O")
"y"
>>> classname("CC/C=C\\C/C=C\\C/C=C\\C/C=C\\C/C=C\\CCCC(=O)O [ICOSAPENT]")
"n"
>>> classname("CC/C=C\\C/C=C\\C/C=C\\CCCCCCCC(=O)O [LINOLENIC ACID]")
"n"
>>> classname("CCCCCCCCCCCCCCCCCC(=O)O [STEARIC ACID]")
"n"
>>> classname("CC/C=C\\C/C=C\\C/C=C\\C/C=C\\C/C=C\\C/C=C\\CCC(=O)Oc1cccc2c1C(=O)C=CC2=O")
"y"
>>> classname("CC/C=C\\C/C=C\\C/C=C\\C/C=C\\C/C=C\\C/C=C\\CCC(=O)O [DOCONEXENT]")
"n"
>>> classname("CCCCC/C=C\\C/C=C\\CCCCCCCC(=O)Oc1cccc2c1C(=O)C=CC2=O")
"y"
